# EXPERIMENTAL PROTOCOL: in vitro
# EXPERIMENTAL CONTEXT: PAMPA
ENDPOINT: Membrane permeability properties / BBB-crossing potential (in words)

- COMPOUND: "COC(=O)C(C)c1ccc(C(F)C(C)C)cc1 (stereo not shown)"
  MEASUREMENT: "very good"
- COMPOUND: "COC(=O)C(C)c1ccc(CC(C)(C)F)cc1 (stereo not shown)"
  MEASUREMENT: "very good"
